condition summary: pH 6.8
endpoint label: aqueous solubility (µg/mL)

Observe how each entry below is paired with its result.
>>> reading("Cc1ccc2[nH]c(C3CCN(C)CC3)nc2c1")
57.3
>>> reading("Nc1nc(NCCNc2ncc(-c3ncc[nH]3)c(-c3ccc(Cl)cc3Cl)n2)ccc1[N+](=O)[O-]")
29.9
>>> reading("N#C/C(=C\\c1ccc(O)c(O)c1)C(=O)NCc1ccccc1")
42.5

[I] C/C=C/CC(=O)N1CCC(c2cc(Cc3ccccc3)n[nH]2)CC1
[II] Cc1ccc(NC(=O)c2cc(F)cc(F)c2)nc1
[III] Cc1ccsc1CN(C)C(=O)[C@@H]1CCCN1C(=O)NC(C)C
Order each entry by recorded aqueous solubility, climbing from the minimum. To answer, arrange all of the labels according to the requested order.
II, I, III
(II: 7.52 µg/mL, I: 24.1 µg/mL, III: 42.1 µg/mL)

----------
endpoint label: MDR1-MDCK efflux ratio

[1] Cc1ncn(Cc2noc(-c3ccccc3O)n2)c1C
[2] Cc1ccc(OC[C@@H](O)[C@H](C)NC(C)C)c2c1CCC2
I'm curious whether 1 or 2 has the smaller MDR1-MDCK efflux ratio number. Which is it? Provide the label of your selected option as the answer.
1
(1: 0.643, 2: 1.38)

[a] CCCOc1ccccc1C(=O)N1CC(Oc2cccc(OC)c2)C1
[b] Cc1ccnc(NC(=O)CN(C)C(=O)c2ccc(Cl)cc2)c1
I'm curious whether a or b has the smaller MDR1-MDCK efflux ratio number. Which is it? Provide the label of your selected option as the answer.
a

----------
endpoint label: fraction unbound, human plasma

>>> reading("COc1ccccc1-c1cc(NC(=O)c2cccc(N3CCNC3=O)c2)[nH]n1")
0.004
>>> reading("COc1ccc(OC[C@@H]2c3cc(OC)c(OC)cc3CCN2C(=O)c2cccc(Cl)c2)cc1")
0.00764
>>> reading("CN(C(=O)c1cc(N2CCNC2=O)ccc1F)C1CCC(N)CC1 (stereo not given)")
0.674

[I] CN1C(N)=N[C@](C)(c2cc(NC(=O)c3ccc(F)cn3)ccc2F)CS1(=O)=O
[II] CNC(=O)C1(Cc2ccc(-c3cccnc3)cc2)CCN(Cc2cccc(F)c2)C1 (stereo not given)
[III] CCc1c[nH]c2ncnc(N3CCC(CN4CCN(C)CC4)CC3)c12
[IV] Nc1ncc(C(=O)NC2CN(C(=O)C3CC3)C2)c2ccc(-c3cccc(F)c3)nc12
Sort these compounds on fraction unbound, human plasma so the largest reading comes first. To answer, arrange all of the labels according to the requested order.
III, I, II, IV
(III: 0.535, I: 0.363, II: 0.0676, IV: 0.042)

----------
endpoint label: intrinsic clearance, human liver microsomes (mL/min/kg)

Observe how each entry below is paired with its result.
>>> reading("C(=C\\c1ccccc1)/CNCc1ccc2c(c1)OCO2")
38.9
>>> reading("COc1ccc(C(=O)c2ccc(Cl)cc2)c(OC)c1")
87.4
>>> reading("Cc1ncsc1CN1CCCN(c2nc3ccccc3[nH]2)CC1")
36.5
>>> reading("O=C(c1ccccn1)N1CCCC(c2cccc(-c3cccc(Cl)c3)n2)C1 (stereo not given)")
164
>>> reading("CN(C)CCNc1c2c(c(C#N)c3nc4ccccc4n13)CCCC2")
24

[I] O=C(Cn1nc(Cc2ccccc2)c2ccccc2c1=O)NCCc1c[nH]cn1
[II] O=C(CCN1CCN(C(=O)OCc2cc(Cl)cc(Cl)c2)CC1)c1ccc2[nH]c(=O)oc2c1
Please state the entry with greater intrinsic clearance, human liver microsomes among I and II . Provide the label of your selected option as the answer.
II
(II: 147 mL/min/kg, I: 36.6 mL/min/kg)
